Hi there, I'd appreciate the recorded Kd for every entry that follows.
- subject_of_test: T1, hu N(A2-B2)A-avi-His (human, biotin on the avi tag where used biotinylated)
- T1 construct: chimeric soluble antigen; also called hu N(A2-B2)A-avi-His B; human CEA (A2 domain)
- T1 chain: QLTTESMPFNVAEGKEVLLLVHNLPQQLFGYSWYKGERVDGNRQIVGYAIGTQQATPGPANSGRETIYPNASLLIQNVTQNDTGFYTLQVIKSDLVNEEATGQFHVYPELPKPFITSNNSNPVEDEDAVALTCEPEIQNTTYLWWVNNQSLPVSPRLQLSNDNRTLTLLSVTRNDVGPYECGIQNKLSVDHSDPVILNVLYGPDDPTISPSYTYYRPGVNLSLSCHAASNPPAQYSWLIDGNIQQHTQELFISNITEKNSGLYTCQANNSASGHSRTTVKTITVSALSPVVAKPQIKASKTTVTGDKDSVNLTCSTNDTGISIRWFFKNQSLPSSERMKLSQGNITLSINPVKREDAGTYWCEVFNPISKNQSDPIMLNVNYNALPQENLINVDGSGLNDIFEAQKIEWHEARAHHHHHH
- assay_method_text: SPR (Biacore T200), antigen on CM5 chip, Fab as analyte

For orientation, consider the following solved cases.
P1AE4137 (Fab, V domains shown, Fab fragment; also called Fab derived from P1AE2166) VH: EVQLLESGGGLVQPGGSLRLSCAASGFTFTDYYMNWVRQAPGKGLEWLGFIGNKANGYTTEYSASVKGRFTISRDKSKNTLYLQMNSLRAEDTATYYCTRDRGLRFYFDYWGQGTTVTVSS VL: EIVLTQSPATLSLSPGERATLSCRASSSVTYIHWYQQKPGSSPKSWIYATSNLASGIPARFSGSGSGTDFTLTISSLEPEDFAVYYCQHWSSKPPTFGQGTKLEIK    11.3 nM
P1AE4143 (Fab, V domains shown, Fab fragment; also called Fab derived from P1AE2182) VH: EVQLLESGGGLVQPGGSLRLSCAASGFTFTDYYMNWVRQAPGKGLEWVGFIGNKANGYTTEYSASVKGRFTISRDKSKNTLYLQMNSLRAEDTAVYYCARDRGLRFYFDYWGQGTTVTVSS VL: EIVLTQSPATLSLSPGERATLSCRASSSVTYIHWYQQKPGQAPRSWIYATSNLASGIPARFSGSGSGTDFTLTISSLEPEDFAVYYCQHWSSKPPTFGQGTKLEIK    2.92 nM
P1AE4140 (Fab, V domains shown, Fab fragment; also called Fab derived from P1AE2177) VH: EVQLLESGGGLVQPGGSLRLSCAASGFTFTDYYMNWVRQAPGKGLEWVGFIGNKANGYTTEYSASVKGRFTISRDNSKNTLYLQMNSLRAEDTAVYYCTRDRGLRFYFDYWGQGTTVTVSS VL: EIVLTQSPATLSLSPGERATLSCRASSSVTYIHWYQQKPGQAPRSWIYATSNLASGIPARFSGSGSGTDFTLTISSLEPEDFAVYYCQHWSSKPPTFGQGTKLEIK    7.62 nM
P1AE4138 (Fab, V domains shown, Fab fragment; Ckappa light chain; also called Fab derived from P1AE2167) VH: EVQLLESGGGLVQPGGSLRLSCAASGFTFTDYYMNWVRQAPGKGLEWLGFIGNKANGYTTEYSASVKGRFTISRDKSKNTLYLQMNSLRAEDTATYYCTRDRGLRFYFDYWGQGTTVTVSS VL: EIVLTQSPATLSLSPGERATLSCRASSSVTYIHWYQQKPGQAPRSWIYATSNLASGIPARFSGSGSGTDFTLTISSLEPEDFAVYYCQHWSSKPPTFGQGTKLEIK    1.47 nM

Please turn your attention to the following entry.
In: What does the record list as Kd for P1AE4136 (Fab, V domains shown, Fab fragment; also called Fab derived from P1AE2165) VH: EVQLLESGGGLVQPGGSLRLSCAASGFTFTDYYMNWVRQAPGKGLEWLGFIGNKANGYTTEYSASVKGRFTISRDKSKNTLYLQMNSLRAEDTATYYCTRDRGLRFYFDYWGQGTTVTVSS VL: QTVLTQSPATLSLSPGERATLSCRASSSVTYIHWYQQKPGQAPRLLIYATSNLASGIPARFSGSGSGTDFTLTISSLEPEDFAVYYCQHWSSKPPTFGQGTKLEIK ?
Out: 1.25 nM

Ref: patent US20220267464A1
